Assay: qHTS Screen of the MIPE 4.0 Collection Against Ewings Sarcoma (TC71) (AID 1259253); note: potency is the fitted concentration of half-maximal effect; nearly all actives have a fitted effect of over 40% in size
Conditions: TC71 Ewing sarcoma viability, CellTiter-Glo, 48 h; series mostly up to 45.8 µM
Records with an inconclusive call do not appear. Active and inactive are the calls of the source. Calls come from the whole dose curve; as a rule, active = well fitted inhibition curve with a large enough effect; inconclusive = small, poorly fitted or top-dose-only effect; inactive = no such curve, though single readings can be large or run the other way.

[
  {
    "cpd-smiles": "C=CCNC1=C2C[C@@H](C)C[C@H](OC)[C@@H](O)[C@@H](C)C=C(C)[C@H](OC(N)=O)[C@@H](OC)C=CC=C(C)C(=O)NC(=CC1=O)C2=O",
    "Potency": "3720 nM (active)"
  },
  {
    "cpd-smiles": "NC(=O)Nc1sc(-c2ccc(F)cc2)cc1C(N)=O",
    "Potency": "1660 nM (active)"
  },
  {
    "cpd-smiles": "CCN(CC)CCNC(=O)c1c(C)[nH]c(C=C2C(=O)Nc3ccc(F)cc32)c1C",
    "Potency": "13600 nM (active)"
  },
  {
    "cpd-smiles": "CCNC(=O)Nc1ccc(-c2nc3c(c(N4CCOC[C@H]4C)n2)CCN(C2COC2)C3)cc1",
    "Potency": "935 nM (active)"
  }
]

====

Test: Quantitative High-Throughput drug screen in 47 multiple myeloma cell lines against the NCATS MIPE library collection: PCM6_Riken cell viability assay (AID 1919870); note: nearly all actives have a fitted effect of over 30% in size
Conditions: CellTiter-Glo ATP, 48 h; series mostly up to 45.8 µM
Inconclusive results are not listed. The source made the active and inactive calls. The call rests on the fitted dose curve; in most records, active means well fitted cell-killing curve with a large enough effect; inconclusive means small, poorly fitted or top-dose-only effect, or effect the other way; inactive means no such curve, though single readings can be large or run the other way.
Outcome codes: yes (1) (active), no (0) (inactive)

[
  {
    "molecule": "CN(C)c1ccc(C(=O)NCCCCCCC(=O)NO)cc1",
    "assigned-class": "yes (1)"
  },
  {
    "molecule": "O=C(C=CC#Cc1cccc(NS(=O)(=O)c2ccccc2)c1)NO",
    "assigned-class": "yes (1)"
  },
  {
    "molecule": "C=CCNc1c(O)cc2c(O)c1C[C@@H](C)C[C@H](OC)[C@@H](O)[C@@H](C)C=C(C)[C@H](OC(N)=O)[C@@H](OC)C=CC=C(C)C(=O)N2",
    "assigned-class": "yes (1)"
  },
  {
    "molecule": "Cn1cc(CNCC2CCN(c3ncc(C(=O)NO)cn3)CC2)c2ccccc21",
    "assigned-class": "yes (1)"
  },
  {
    "molecule": "Cc1noc(-c2ccc(CSCCC(=O)O)cc2)c1NC(=O)OC(C)c1ccccc1Cl (stereo not given)",
    "assigned-class": "no (0)"
  },
  {
    "molecule": "N#Cc1cc(NC(=O)Nc2nnc(-c3ccncc3)s2)ccc1-c1cn[nH]c1",
    "assigned-class": "no (0)"
  },
  {
    "molecule": "Oc1ccc(-c2ccc(-c3cc(Nc4cccc(CNC5CC5)c4)n[nH]3)cc2)c(O)c1",
    "assigned-class": "yes (1)"
  },
  {
    "molecule": "CC(C)N1[N]C(=C2C=c3cc(O)ccc3=N2)c2c(N)ncnc21",
    "assigned-class": "yes (1)"
  },
  {
    "molecule": "CCc1cc(C(C)=NOCc2ccc(C3CCCCC3)c(C(F)(F)F)c2)ccc1CN1CC(C(=O)O)C1",
    "assigned-class": "yes (1)"
  },
  {
    "molecule": "CN(C)CCN1C(=O)c2cccc3cc(N)cc(c23)C1=O",
    "assigned-class": "yes (1)"
  }
]
